- assay.target: T1, human IL-17A (human, UniProt Q16552 24-155)
- T1 construct: secreted form made in Hek293 cells (GenBank U32659); also called hIL-17A; hIL17A
- T1 sequence (Q16552 other isoform, or with tags, fused parts or gaps): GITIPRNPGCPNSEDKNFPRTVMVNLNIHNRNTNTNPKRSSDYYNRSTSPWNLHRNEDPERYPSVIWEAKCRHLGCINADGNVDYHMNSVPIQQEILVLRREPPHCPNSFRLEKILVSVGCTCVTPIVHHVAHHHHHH
- experiment.description: SPR (Biacore) off-rate
Each record here notes measured koff.
Provide the reading as a plain figure in s⁻¹.

These solved cases illustrate the format of a correct answer.
{"binder": "IL17MS3020 (VHH, variant of IL17MS13E02; Kabat numbering) VHH: EVQLVESGGGLVQPGGSLRLSCAASGRTYDAMGWLRQAPGKEREFVAAISGSGDDTYYADSVKGRFTISRDNSGITMYLQMNSLRPEDTAVYYCATRRGLYYVWDSNDYENWGQGTLVTVSS", "koff [s⁻¹]": "2.84e-05"}
{"binder": "IL17MS3035 (VHH, variant of IL17MS13E02; Kabat numbering) VHH: EVQLVESGGGLVQAGGSLRLSCAASGRTYDAMGWLRQAPGKEREFVAAISGSGDDTYYADSVKGRFTISKDNAGITLYLQMNSLKPEDTAVYYCATRRGLYYVWDSNDYENWGQGTQVTVSS", "koff [s⁻¹]": "7.59e-05"}

Given item IL17MS3034 (VHH, variant of IL17MS13E02; Kabat numbering) VHH: EVQLVESGGGLVQAGGSLRLSCAASGRTYDALGWLRQAPGKEREFVAAISGSGDDTYYADSVKGRFTISKDNAGITMYLQMNSLKPEDTAVYYCATRRGLYYVWDSNDYENWGQGTQVTVSS , the value recorded as its koff is 0.000116

Given item IL17MS3038 (VHH, variant of IL17MS13E02; Kabat numbering) VHH: EVQLVESGGGLVQAGGSLRLSCAASGRTYDAVGWLRQAPGKEREFVAAISGSGDDTYYADSVKGRFTISKDNAGITMYLQMNSLKPEDTAVYYCATRRGLYYVWDSNDYENWGQGTQVTVSS , the value recorded as its koff is 0.000225

Given item IL17MS3022 (VHH, variant of IL17MS13E02; Kabat numbering) VHH: EVQLVESGGGLVQPGGSLRLSCAASGRTYDAMGWLRQAPGKEREFVAAISGSGDDTYYADSVKGRFTISKDNSGNTMYLQMNSLRPEDTAVYYCATRRGLYYVWDSNDYENWGQGTLVTVSS , the value recorded as its koff is 6.41e-05

Given item IL17MS3021 (VHH, variant of IL17MS13E02; Kabat numbering) VHH: EVQLVESGGGLVQPGGSLRLSCAASGRTYDAMGWLRQAPGKEREFVAAISGSGDDTYYADSVKGRFTISKDNSKITMYLQMNSLRPEDTAVYYCATRRGLYYVWDSNDYENWGQGTLVTVSS , the value recorded as its koff is 0.000216
